# Measured On: human DGKζ (Homo sapiens (Human), UniProt Q13574)
# Sequence (Q13574 whole entry, looked up): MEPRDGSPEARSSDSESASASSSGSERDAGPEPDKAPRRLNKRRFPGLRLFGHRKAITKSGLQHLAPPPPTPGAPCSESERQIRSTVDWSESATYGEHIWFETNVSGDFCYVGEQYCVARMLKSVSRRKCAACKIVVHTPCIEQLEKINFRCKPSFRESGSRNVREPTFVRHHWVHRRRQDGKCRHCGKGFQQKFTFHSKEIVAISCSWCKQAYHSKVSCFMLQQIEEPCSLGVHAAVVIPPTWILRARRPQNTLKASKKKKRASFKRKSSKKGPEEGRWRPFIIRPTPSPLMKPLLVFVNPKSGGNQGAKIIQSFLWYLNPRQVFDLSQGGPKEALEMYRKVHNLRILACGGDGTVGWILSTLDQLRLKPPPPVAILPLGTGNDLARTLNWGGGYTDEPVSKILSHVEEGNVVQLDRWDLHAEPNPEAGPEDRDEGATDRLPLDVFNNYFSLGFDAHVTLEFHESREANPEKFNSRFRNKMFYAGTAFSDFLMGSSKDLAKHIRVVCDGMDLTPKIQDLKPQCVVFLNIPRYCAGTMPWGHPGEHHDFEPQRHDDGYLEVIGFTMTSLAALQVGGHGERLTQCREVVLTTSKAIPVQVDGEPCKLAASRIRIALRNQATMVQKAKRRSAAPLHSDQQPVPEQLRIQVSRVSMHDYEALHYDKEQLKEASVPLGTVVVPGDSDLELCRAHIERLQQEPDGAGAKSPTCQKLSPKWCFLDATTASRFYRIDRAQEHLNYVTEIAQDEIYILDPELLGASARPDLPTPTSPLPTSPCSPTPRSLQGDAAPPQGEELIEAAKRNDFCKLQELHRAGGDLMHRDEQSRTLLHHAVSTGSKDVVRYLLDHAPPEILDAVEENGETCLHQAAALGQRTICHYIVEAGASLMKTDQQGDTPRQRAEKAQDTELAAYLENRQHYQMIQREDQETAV
# Test Summary: biochemical
# Type: biochemical
# Particulars: read-out: DGKζ LIPGLO IC50
Measurement Type: pIC50
# pIC50: negative log10 of molar concentration; output just the value

Use these answered entries as a reference point.
{"columns": ["Compound", "Measurement Type", "Obs Value"],
 "data": [
  ["CCC(C)(C)c1ccc(O[C@H]2CCN(c3cc(=O)n(C)c4ccc(C#N)nc34)C[C@H]2C)cc1 [Example 169]", "pIC50", 5.85],
  ["Cc1cc(OC(F)(F)F)ccc1OC1CCN(c2c(C#N)c(=O)n(C)c3ccc(Cl)nc23)CC1", "pIC50", 3.62]
]}

Query: Using human DGKζ (Homo sapiens (Human), UniProt Q13574) as the test system, report measured pIC50 of CCC(C)(C)c1ccc(O[C@@H]2CCN(c3cc(=O)n(C)c4ccc(C#N)nc34)C[C@H]2C)cc1 .
Response: 5.41

Query: Using human DGKζ (Homo sapiens (Human), UniProt Q13574) as the test system, report measured pIC50 of CC[C@@H]1CN(c2cc(=O)n(C)c3ccc(C#N)nc23)CC[C@H]1Oc1ccc(OC(C)(C)C)cc1 .
Response: 5.72

Query: Using human DGKζ (Homo sapiens (Human), UniProt Q13574) as the test system, report measured pIC50 of CCC(C)(C)c1ccc(O[C@H]2CCN(c3cc(=O)n(C)c4ccc(C#N)nc34)C[C@H]2C)cc1 (single isomer, unassigned) [Example 171] .
Response: 5.43

----------
Here the recorded EC50 is given for each entry.
# System: Human venous whole blood (IFN-γ)
# Test Summary: Human whole blood IFN-γ assay
# Assay type: cell-based
# Particulars: Homo sapiens, human whole blood IFN-γ; read-out: INFg Whole Blood
# unit: nM | format: bare number

Use these answered entries as a reference point.
{"columns": ["Compound", "EC50 / nM"],
 "data": [
  ["CC(C)c1ccc(O[C@H]2CCN(c3cc(=O)n(C)c4ccc(C#N)nc34)C[C@H]2C)nc1", 370],
  ["CC(C)Oc1ccc(O[C@H]2CCN(c3cc(=O)n(C)c4ccc(C#N)nc34)C[C@@H]2O)nc1 (single isomer, unassigned)", 17000],
  ["C[C@@H]1CN(c2cc(=O)n(C)c3ccc(C#N)nc23)CC[C@@H]1Oc1ccc(C(F)(F)F)cn1 [Example 225]", 1800]
]}

Query: Specify EC50 for CC(C)Oc1ccc(O[C@@H]2CCN(c3cc(=O)n(C)c4ccc(C#N)nc34)C[C@H]2C)nc1 (mixture of isomers) [Example 199] and stop.
Response: 2100

----------
# Test system: Human venous whole blood (IFN-γ)
# Test Summary: Human whole blood IFN-γ assay
# Assay type: cell-based
# Particulars: Homo sapiens, 24 h, human whole blood, anti-CD3 plus anti-CD28, 24 hours; read-out: INFg Whole Blood Normalized Agonist EC50
Here the recorded log10 EC50 is given for each entry.
Response schema: value (number) is log10 of EC50 in units of µM.

Use these answered entries as a reference point.
{"columns": ["Compound", "Obs Value"],
 "data": [
  ["C[C@@H]1CN(c2cc(=O)n(C)c3ccc(C#N)nc23)CC[C@H]1Oc1ccc(C(C)(C)C)cc1 [Example 88]", -0.06],
  ["C[C@@H]1CN(c2cc(=O)n(C)c3ccc(C#N)nc23)CC[C@@H]1Oc1ccc(C(C)(C)C)cc1 (racemic)", 0.15],
  ["Cn1c(=O)cc(N2CCC(Oc3ccnc(C(F)(F)F)n3)CC2)c2nc(C#N)ccc21", 1.30],
  ["CC[C@@H]1CN(c2cc(=O)n(C)c3ccc(C#N)nc23)CC[C@H]1Oc1ccc(C(C)(C)C)cc1 (racemic)", 0.18],
  ["Cn1c(=O)c(C#N)c(N2CCC(Oc3cccc(OC(F)(F)F)c3)CC2)c2nc(Cl)ccc21", 0.70]
]}

Query: Specify log10 EC50 for C[C@@H]1CN(c2cc(=O)n(C)c3ccc(C#N)nc23)CC[C@H]1Oc1cccc(C2CC2)c1 and stop.
Response: 0.64

Query: Specify log10 EC50 for C[C@@H]1CN(c2cc(=O)n(C)c3ccc(C#N)nc23)CC[C@H]1Oc1ccc(F)cc1C(F)(F)F [Example 116] and stop.
Response: 0.67
